- assay-system: CCR2 (Homo sapiens, UniProt P41597)
- Construct: Membranes were prepared from THP-1 cells; endogenous in cells
- Sequence (P41597 1-360 isoform P41597-2): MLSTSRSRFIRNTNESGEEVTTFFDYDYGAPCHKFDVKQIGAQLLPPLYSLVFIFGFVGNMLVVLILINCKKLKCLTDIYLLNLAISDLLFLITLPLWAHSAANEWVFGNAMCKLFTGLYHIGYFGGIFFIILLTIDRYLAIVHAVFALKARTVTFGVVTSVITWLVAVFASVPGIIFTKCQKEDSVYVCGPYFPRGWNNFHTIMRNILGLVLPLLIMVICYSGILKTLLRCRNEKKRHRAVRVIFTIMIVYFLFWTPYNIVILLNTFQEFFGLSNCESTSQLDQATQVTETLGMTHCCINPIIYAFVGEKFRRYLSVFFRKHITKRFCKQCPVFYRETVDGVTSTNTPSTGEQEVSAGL
- protocol-description: CCR2 receptor membrane binding assay ([125I]MCP-1, THP-1 cell membranes, SPA beads)
- experimental-parameters: dissociation constant hKi; [125I]MCP-1 binding to THP-1 membranes
attribute-measured: Ki (nM)

Cc1c(NCC2Cc3ccccc3C2)ncnc1C(=O)N1CCC(N2CCC(O)CC2)CC1 :: 169

(P) Cc1nc(NCC2CCCN(c3ccccc3)C2)c(C)c(C(=O)N2CCC(N3CCC(N(C)S(C)(=O)=O)CC3)CC2)n1 (stereo not shown)
(Q) COc1ccc(CNc2ncnc(C(=O)N3CCC(N4CCC(N(C)S(C)(=O)=O)CC4)CC3)c2C)cc1
Input: Of P and Q , whose reported Ki is numerically smaller? Answer = label.
Output: P

====

- assay-system: CCR2 (Homo sapiens)
- Construct: Membranes were prepared from THP-1 cells; endogenous in cells
- Sequence (P41597 1-360 isoform P41597-2): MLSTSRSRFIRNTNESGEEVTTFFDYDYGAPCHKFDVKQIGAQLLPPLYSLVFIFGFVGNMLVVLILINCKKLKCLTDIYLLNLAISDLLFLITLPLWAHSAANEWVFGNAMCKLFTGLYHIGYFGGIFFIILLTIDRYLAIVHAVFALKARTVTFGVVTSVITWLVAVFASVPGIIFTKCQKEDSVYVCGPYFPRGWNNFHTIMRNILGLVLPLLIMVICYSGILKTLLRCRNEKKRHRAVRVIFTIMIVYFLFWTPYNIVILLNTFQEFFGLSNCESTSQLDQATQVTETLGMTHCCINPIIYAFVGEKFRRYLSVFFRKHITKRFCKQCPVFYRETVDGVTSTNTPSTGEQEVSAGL
- protocol-description: CCR2 receptor membrane binding assay ([125I]MCP-1, THP-1 cell membranes, SPA beads)
- experimental-parameters: dissociation constant hKi; [125I]MCP-1 binding to THP-1 membranes
attribute-measured: Ki (nM)

Below: 5 compounds and their reported Ki.
Cc1c(NCC2CCN(c3ccccc3)C2)ncnc1C(=O)N1CCC(N2CCC(NS(C)(=O)=O)CC2)CC1 (centres unmarked) :: 71
CCN(C1CCN(C2CCN(C(=O)c3ncnc(NCCc4ccc(Cl)c(Cl)c4)c3C)CC2)CC1)S(C)(=O)=O :: 27
Cc1c(NCC2Cc3ccccc3C2)ncnc1C(=O)N1CCC(N2CCC(NS(C)(=O)=O)CC2)CC1 :: 38
Cc1c(NC[C@@H]2CCC[C@H](c3ccccc3)C2)ncnc1C(=O)N1CCC(N2CCC(N(C)S(C)(=O)=O)CC2)CC1 :: 14
Cc1c(OCc2ccc(C(C)(C)C)cc2)ncnc1C(=O)N1CCC(N2CCOCC2)CC1 :: 599

(P) Cc1c(NCCc2ccccc2)ncnc1C(=O)N1CCC(N2CCC(O)CC2)CC1
(Q) CNC(=O)[C@@H]1CCN(C2CCN(C(=O)c3ncnc(NCc4ccc(C(F)(F)F)c(Cl)c4)c3C)CC2)C1
Input: In the pair P and Q , the larger recorded Ki belongs to which? // output: label of the selected item
Output: P
(P: 1830 nM, Q: 650 nM)

(1) Cc1c(NCc2ccc(Cl)c(Cl)c2)ncnc1C(=O)N1CCC(N2CCC(NC(N)=O)CC2)CC1
(2) COC1COCCC1N(C)C1CCN(C(=O)c2ncnc(NC[C@H]3CCC[C@@H](c4ccccc4)C3)c2C)CC1 (some centres unmarked) [Example 275dj]
(3) CNC(=O)C1CCN(C2CCN(C(=O)c3ncnc(NC[C@H]4CCC[C@@H](c5ccccc5)C4)c3C)CC2)CC1 [Example 159p]
(4) Cc1c(NCC2CCN(c3ccccc3)CC2)ncnc1C(=O)N1CCC(N2CCCCC2)CC1
Input: # rank_down: sort by Ki, max first Give the labels in the order requested.
Output: 4, 1, 3, 2

(P) Cc1c(NCc2ccc(C(C)(C)C)nc2)ncnc1C(=O)N1CCC(N2CCC(N(C)S(C)(=O)=O)CC2)CC1
(Q) Cc1c(NCc2ccc(C(C)(C)C)cc2)ncnc1C(=O)N1CCC(N2CC(N(C)S(C)(=O)=O)C2)CC1
Input: // select label with min value of measured Ki from [ P , Q ] In your reply, give the label of the chosen option.
Output: P

(I) Cc1c(NCc2ccc(C(C)(C)C)cc2)ncnc1C(=O)N1CCC(N2CCOC(C)C2)CC1 (centres unmarked)
(II) Cc1c(NCCc2ccc(C(C)(C)C)cc2)ncnc1C(=O)N1CCC(N2CCCCC2)CC1
(III) CO[C@@H]1COCC[C@@H]1NC1CCN(C(=O)c2ncnc(NC[C@H]3C[C@@H](c4ccccc4)C3)c2C)CC1 [Example 275dg]
Input: // smallest Ki at index 0, largest at the end Put the labels in the requested order and write them down.
Output: III, I, II

(A) Cc1c(NCC2COc3ccccc3C2)ncnc1C(=O)N1CCC(N2CCOCC2)CC1 (centres unmarked)
(B) Cc1c(NCCc2ccc(Cl)c(Cl)c2)ncnc1C(=O)N1CCC(N2CCC(O)CC2)CC1
(C) Cc1c(NC[C@@H]2CC[C@H](c3ccc(C(F)(F)F)cc3)O2)ncnc1C(=O)N1CCC(N2CCC(N(C)S(C)(=O)=O)CC2)CC1 [Example 159la]
(D) Cc1c(NCc2ccc(C(C)(C)C)cc2)ncnc1C(=O)N1CCC(N2CCC(c3ccncc3)CC2)CC1
(E) COC1COCCC1NC1CCN(C(=O)c2ncnc(NCC3CCCCC3)c2C)CC1 (centres unmarked) [Example 159dc]
Input: Order the items by recorded Ki; the first position goes to the largest value. Response format: the labels, sorted as the prompt asks.
Output: A, B, D, E, C
(A: 928 nM, B: 204 nM, D: 101 nM, E: 38 nM, C: 19 nM)

(1) Cc1c(NCc2ccc(C(C)(C)C)cc2)ncnc1C(=O)N1CCC(N2CC(C)OC(C)C2)CC1 (centres unmarked)
(2) Cc1c(NCc2ccc(C(C)(C)C)cc2)ncnc1C(=O)N1CCC(N2CCCCC2)C1 (centres unmarked)
(3) Cc1nc(NC[C@H]2CC[C@H](c3ccc(Cl)cc3)O2)c(C)c(C(=O)N2CCC(N3CCC(N(C)S(C)(=O)=O)CC3)CC2)n1 [Example 159ua]
Input: Please give the order of these compounds when sorted by Ki, largest value leading. Rank them, then answer with their labels in that order.
Output: 2, 1, 3
(2: 1260 nM, 1: 281 nM, 3: 23 nM)

(A) COC1CCN(C2CCN(C(=O)c3ncnc(NCc4ccc(C)c(Cl)c4)c3C)CC2)CC1
(B) Cc1c(NCc2cccc(-c3ccccc3)c2)ncnc1C(=O)N1CCC(N2CCCC(O)C2)CC1 (centres unmarked)
Input: Smaller Ki value, A vs B ? Kindly state the label of the option you pick.
Output: A
